Values compiled from the supplement of paper PMC10567573.

Measurement protocol: protein stability index of a GFP-peptide fusion (GPS, HEK-293T) (PSI 1-6); higher = more stable;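 also: 24-mer peptide tiles fused after GFP, lentivirally expressed, FACS-sorted into six equal bins by GFP/DsRed ratio, decoded by Illumina sequencing, PSI is the read-weighted mean bin number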
Protocol conditions: treatment: DMSO; c terminus: a fixed tail appended
Below, each entry is listed with its recorded protein stability index.
Reply with the value as a number alone.

These solved cases illustrate the format of a correct answer.
LGNFFTTLRVVHHKFHSQRHGSKK [TMEM120A] : 2.39
NSDDSYTCECLEGFRLAEDGKRCR [MATN2] : 3.54
NNEIPDCYTFSVLITFDNKAHSGR [MCOLN1] : 2.34
SSGRRVSLHCLLDQFDKDLPVYLK [DENND6A] : 2.35
IIYMAILLTHRCLRDEHRCASKYG [DHCR7] : 2.83

Q: Request the reported protein stability index associated with EKYSVATQLFIGGVTGWCTGFIFQ [FUNDC2]
A: 2.75

Q: What would you report for RDSFMRHRGHCERRHRLGGVGAVP [ZBTB22] ?
A: 3.22

Q: What would you report for EERERIERVRRIHIKRPDDRAHLH [KCTD10] ?
A: 4.43

Q: What would you report for DPEPSGPHLPRVMLPGVLAGVSAE [SCNN1D] ?
A: 4.59

Q: What would you report for QYEGHVNEYAYLPLHVHEEEGILV [DCAF4] ?
A: 3.19

Q: What would you report for SSSSKLSRSPLKIVKKPKSMQCKV [EPB41L3] ?
A: 3.54

Q: What would you report for YMLFDPKDSVMQQNLVYYRFHRAR [P3H4] ?
A: 2.26

Q: What would you report for YDVKYLMKSCKNLKGGLQEVAEQL [CNOT7] ?
A: 2.61

Q: What would you report for EDEDDDSADMDESDEDDEEERRRR [FBXO3] ?
A: 5.65

Q: What would you report for TITMAHLLAAREDLSKIIRTSSGT [FAM98B] ?
A: 2.31

Q: What would you report for ATKITLSAIYKWITDNFCYFRHAD [FOXJ1] ?
A: 3

Q: What would you report for FLPHHIMVKIFRLLPTKSLVALKC [FBXO34] ?
A: 2.76

Q: What would you report for ADGAWVVKMFYSFQDKRNLYLIME [STK38L] ?
A: 3.11

Q: What would you report for FLTVGSVLQMWHIVDKCTELLREG [ZBTB22] ?
A: 3.09

Q: What would you report for TSYKVMVSNDSHTWVTVKNGSGDM [CPXM2] ?
A: 2.8

Q: What would you report for SRWVRDPRYREDPCKQCKKKYVKG [FBXO34] ?
A: 3.59

Q: What would you report for VLIFKSILFLPCLRKKILKIRHGW [STEAP1] ?
A: 2.16

====

Measurement protocol: protein stability index of a GFP-peptide fusion (GPS, HEK-293T) (PSI 1-6); higher = more stable
Protocol conditions: treatment: MLN4924 1 uM, 8 h; c terminus: a fixed tail appended
Readout type: protein stability index
Reply with the value as a number alone.

These solved cases illustrate the format of a correct answer.
LDEGMQIPSTQFDAAHPTNVQRLA [CTNNB1] : 4.7
SFEDDCSQSLCLNKPTMSFKDYIQ [ETS2] : 3.67
DHDPTIEDAYKIRIRIDDEPANLD [RIT1] : 4.84
LMSGALAVNQKIDRESLCGASTSC [PCDHGC5] : 3.6
ATKITLSAIYKWITDNFCYFRHAD [FOXJ1] : 2.77
LIHQHEKVIYLDDDVIVQGDIQEL [GLT8D2] : 3.59
PALHPAHAPQISYTGPSSSGRFAG [NCK2] : 4.15
SSGRRVSLHCLLDQFDKDLPVYLK [DENND6A] : 2.4

Q: Request the reported protein stability index associated with YDVKYLMKSCKNLKGGLQEVAEQL [CNOT7]
A: 2.98

Q: What would you report for TASTKNCMVGYDMGATRCDFTLSK [CPXM2] ?
A: 3.03

Q: What would you report for PVAQSTDAIRGKVGYTRGLHVWQI [SPSB1] ?
A: 2.21

Q: What would you report for LKISPVTLKEAYVQKLVKVCTDTD [TENT5C] ?
A: 2.91

Q: What would you report for DSKDCILEPLSLPESPGGTTTLEG [ZNF277] ?
A: 5.32

====

Below, each entry is listed with its recorded protein stability index.
Measurement protocol: protein stability index of a GFP-peptide fusion (GPS, HEK-293T) (PSI 1-6); higher = more stable
Protocol conditions: treatment: DMSO; c terminus: a fixed tail appended
Reply with the value as a number alone.

These solved cases illustrate the format of a correct answer.
FHPDPRQKALYRRLATVHMSRMIN [CLPTM1] : 2.58
PNAGEQPGQVAGADFESEDEGEEF [EID1] : 5.59
CLTLTPRPATEAELLTCHSAEYVG [HDAC6] : 3.48
YFSLYCLHQETQLIHVYLPLTSHI [SNX8] : 2.95
QTKQVYDAVGMLGIEEVTYENCLQ [NLN] : 3.56
TSEDLRLQCDAVNLAFGRRCEELE [TEKT4] : 4.51

We now examine a further sequence.
Q: Request the reported protein stability index associated with WQRQMDQPQDRNQALGTHRPVNKL [RASAL3]
A: 4.39

====

Measurement protocol: protein stability index of a GFP-peptide fusion (GPS, HEK-293T) (PSI 1-6); higher = more stable
Protocol conditions: treatment: DMSO; c terminus: a fixed tail appended
protein stability index of 3 or higher: Criterion met. Under 3: Criterion not met.

PSLLELAWEKLLAAFPNLANLSRT [KLHDC10] : Criterion not met

Q: Check if protein stability index >= 3 (inclusive). Item: FHNAVSAYFAGNQKQLEQTLQQFN [ARFIP2]
A: Criterion not met

====

Measurement protocol: protein stability index of a GFP-peptide fusion (GPS, HEK-293T) (PSI 1-6); higher = more stable
Protocol conditions: treatment: DMSO; c terminus: a fixed tail appended
Below, each entry is listed with its recorded protein stability index.
Reply with the value as a number alone.

ARMLSSNERDSSEPGNFIPLFTPQ [CDC25A] : 3.85
SESGKLVTKMFQKIQDLIDDKDAL [TRIP13] : 3.43
PSPVRAPAPSPAKEERKTEVVMNS [PALM] : 5.35
RAFKIKDFANTIPGHGGIMDRFDC [CDS1] : 2.41

Q: Request the reported protein stability index associated with LPDVEPAAFLALLRFLYSDEVQIG [BTBD1]
A: 2.16

Q: What would you report for KLVKVCNGHDCWSLISLSNNTGKN [TENT5D] ?
A: 2.33

Q: What would you report for SNKSLVEALGLEAEGAVPETQTLT [RHOBTB1] ?
A: 5.09

Q: What would you report for DTSGFPDLSDNRNEDPLVLLAWRC [FBXO33] ?
A: 2.67

====

Measurement protocol: protein stability index of a GFP-peptide fusion (GPS, HEK-293T) (PSI 1-6); higher = more stable
Protocol conditions: treatment: DMSO; c terminus: a fixed tail appended
protein stability index of 3 or higher: MET. Under 3: NOT MET.

EAEADKPRRLGRLKYQAPDIDVQL [NOP53] : MET
CIGLQNLKLLDELPIAKVMKDYLK [ASB7] : NOT MET
DNAIMLFSPDFTLRNTLKSTSEDS [FAN1] : MET
GNQDYKYRVSDVTKAGHSLELIEP [VDR] : MET
LTHIEAQNKIRACGERLSLGLSRA [PDLIM7] : NOT MET

Q: Check if protein stability index >= 3 (inclusive). Item: DTILKYLKDHFSHLLGIPHSVLQI [IQUB]
A: NOT MET

Q: What would you report for QAIDATVAAELLNHLLESMPLREG [HES6] ?
A: NOT MET

Q: What would you report for SLLLTPQENESLFTFLGKKCVTMS [WASL] ?
A: NOT MET

Q: What would you report for STDNIVSQWDVLSGDCDQRFRFPS [RBBP5] ?
A: MET

Q: What would you report for CSISKMEEEAGQTSIEPSKSSIIP [ZER1] ?
A: MET

Q: What would you report for WMKHNVADSQITTIGNLVPQKTYS [PTPRD] ?
A: MET

Q: What would you report for NHEIMPGGSVNITCVAVGSPMPYV [PTPRD] ?
A: NOT MET

====

Measurement protocol: protein stability index of a GFP-peptide fusion (GPS, HEK-293T) (PSI 1-6); higher = more stable
Protocol conditions: treatment: DMSO; c terminus: a fixed tail appended
I'd appreciate it if you could label each record using protein stability index and these ranges: low bin: < 3; mid bin: ≥ 3 and < 4; high bin: ≥ 4

Use these answered entries as a reference point.
NHEQEVNTLRCQLGDRLNVEVDAA [KRT33B] : high bin
ITTPIIDTFKVPKEMFTVGCCVFA [SLC6A17] : low bin
LLASVPSNPNGNGGFMGYSAENIP [CRY1] : mid bin
FGHRFIILDTDEYVLKYMESNAAQ [EFHC1] : low bin
ESAQATFQAHRDKYEKLRGDVAIK [ARFIP2] : high bin
SDQDPRVRTAAIKAMLQLHERGLK [INTS4] : mid bin
IVIQTYYRQWHAKIFVENLRRQKS [IQUB] : low bin
REVAKELGIPYYETSVVAQFGIKD [RHOBTB2] : mid bin

Q: Textbook exercise: identify the category of the sequence given here, QHNLRDSLENTLTESEAHYSSQLS [KRT34] , according to its measured value.
A: high bin

Q: What would you report for TPEDSDPDHFDTAILFTRQDLCGV [ADAMTS4] ?
A: high bin

Q: What would you report for TPPHLTSAMAENILAAACESETRK [NOL4L] ?
A: high bin
